- assayedSystem: human NTCP (Homo sapiens, UniProt Q14973)
- Sequence (Q14973 1-349): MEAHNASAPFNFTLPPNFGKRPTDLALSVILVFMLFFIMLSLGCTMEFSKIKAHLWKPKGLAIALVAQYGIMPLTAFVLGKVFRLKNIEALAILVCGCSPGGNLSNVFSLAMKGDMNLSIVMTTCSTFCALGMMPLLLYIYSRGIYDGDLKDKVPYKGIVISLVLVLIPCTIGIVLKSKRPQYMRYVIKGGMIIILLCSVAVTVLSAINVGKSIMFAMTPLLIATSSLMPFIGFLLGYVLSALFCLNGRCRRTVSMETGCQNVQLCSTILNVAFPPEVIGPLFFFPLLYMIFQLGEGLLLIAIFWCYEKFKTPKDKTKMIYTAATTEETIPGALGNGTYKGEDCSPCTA
- testProtocol: Screening fluorescent competitive Myrcludex B-FITC binding assay (96-well, 10 µM drug)
- setupConditions: Prestwick library screen, Myrcludex B-FITC binding, 10 µM drug
Structures can show the parent of a compound that is named as a salt.
reportedEndpoint: B-score binding assay
Answer using only a numeral; do not append any unit.

Some molecules with known B-score binding assay results, for comparison:
>>> number("Nc1nc(N)nc(-c2cc(Cl)ccc2Cl)n1 [Irsogladine maleate]")
-0.312
>>> number("CC(=O)Nc1c(I)c(NC(C)=O)c(I)c(C(=O)O)c1I.O.O [Diatrizoic acid dihydrate]")
1.833
>>> number("CC(=O)OCC(=O)[C@@]1(O)CC[C@H]2[C@@H]3CCC4=CC(=O)CC[C@]4(C)[C@H]3[C@@H](O)C[C@@]21C [Cortisol acetate]")
0.369
>>> number("CO[C@H]1/C=C/O[C@@]2(C)Oc3c(C)c(O)c4c(c3C2=O)C2=NC3(CCN(CC(C)C)CC3)NC2=C(NC(=O)/C(C)=C\\C=C\\[C@H](C)[C@H](O)[C@@H](C)[C@@H](O)[C@@H](C)[C@H](OC(C)=O)[C@@H]1C)C4=O [Rifabutin]")
-0.23
>>> number("CN(C)c1ccc(O)c2c1C[C@H]1C[C@H]3[C@H](N(C)C)C(O)=C(C(N)=O)C(=O)[C@@]3(O)C(O)=C1C2=O [Minocycline hydrochloride]")
0.626

Enquiry: Annotate the molecule COc1cc(N)c(Cl)cc1C(=O)NC1CCN(Cc2ccccc2)CC1 [Clebopride maleate] with its measured B-score binding assay.
Return: -0.092

Enquiry: Annotate the molecule C[C@@H]1[C@H](O)[C@@H](C)/C=C/C=C/CC/C=C/C=C/C=C/C=C/C(O[C@H]2O[C@H](C)[C@@H](O)[C@H](N)[C@@H]2O)CC2O[C@](O)(CC(O)C(O)CCC(O)CC(O)CC(O)CC(=O)O[C@H]1C)CC(O)C2C(=O)O (some centres unmarked) [Nystatine] with its measured B-score binding assay.
Return: 3.8

Enquiry: Annotate the molecule CCC1NC(=O)c2cc(S(N)(=O)=O)c(Cl)cc2N1 (centres unmarked) [Quinethazone] with its measured B-score binding assay.
Return: -0.124

Enquiry: Annotate the molecule COc1cc(NS(=O)(=O)c2ccc(N)cc2)ncn1 [Sulfamonomethoxine] with its measured B-score binding assay.
Return: 0.362

Enquiry: Annotate the molecule CC(=O)Nc1c(I)c(C(=O)N[C@H]2C(O)O[C@H](CO)[C@@H](O)[C@@H]2O)c(I)c(N(C)C(C)=O)c1I (some centres unmarked) [Metrizamide] with its measured B-score binding assay.
Return: 0.138

Enquiry: Annotate the molecule CCN(CC)CC#CCOC(=O)C(O)(c1ccccc1)C1CCCCC1 (centres unmarked) [Oxybutynin chloride] with its measured B-score binding assay.
Return: 0.285

###

- assayedSystem: human NTCP (Homo sapiens)
- testProtocol: Screening taurocholate uptake assay (96-well, [14C]taurocholate, 10 µM drug)
- setupConditions: screening taurocholate uptake, 10 µM drug
Structures can show the parent of a compound that is named as a salt.
Catalogue of B-score functional assay values
Answer using only a numeral; do not append any unit.

Enquiry: Annotate the compound CCCCc1cc2ccccc2c(OCCN(C)C)n1 [Dimethisoquin hydrochloride] with its measured B-score functional assay.
Return: -0.419

###

- assayedSystem: human NTCP (Homo sapiens)
- Sequence (Q14973 1-349): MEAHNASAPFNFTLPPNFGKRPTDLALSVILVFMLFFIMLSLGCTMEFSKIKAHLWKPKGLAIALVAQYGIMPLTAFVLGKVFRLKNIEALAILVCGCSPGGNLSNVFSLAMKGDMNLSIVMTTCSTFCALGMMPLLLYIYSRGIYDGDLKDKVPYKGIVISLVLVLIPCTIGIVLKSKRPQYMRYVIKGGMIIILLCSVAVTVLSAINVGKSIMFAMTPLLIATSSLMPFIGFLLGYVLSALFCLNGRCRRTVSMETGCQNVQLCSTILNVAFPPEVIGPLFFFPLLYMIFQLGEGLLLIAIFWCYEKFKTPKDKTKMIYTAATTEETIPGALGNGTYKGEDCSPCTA
- testProtocol: Screening taurocholate uptake assay (96-well, [14C]taurocholate, 10 µM drug)
- setupConditions: screen, 10 µM drug, taurocholate uptake
Where a name gives a salt, the structure may show the parent alone.
reportedEndpoint: B-score functional assay
Answer using only a numeral; do not append any unit.

>>> number("CC(=O)[C@H]1CC[C@H]2[C@@H]3CC=C4C[C@@H](O)CC[C@]4(C)[C@H]3CC[C@]12C [Pregnenolone]")
-2.394
>>> number("OCCN(CCO)c1nc(N2CCCCC2)c2nc(N(CCO)CCO)nc(N3CCCCC3)c2n1 [Dipyridamole]")
-1.651
>>> number("CCOC1O[C@H]([C@@H](COCc2ccccc2)OCc2ccccc2)[C@H](OCc2ccccc2)[C@H]1O (some centres unmarked) [Tribenoside]")
-1.789
>>> number("C#C[C@]1(O)CC[C@H]2[C@@H]3CCC4=Cc5oncc5C[C@]4(C)[C@H]3CC[C@@]21C [Danazol]")
-0.499
>>> number("Nc1cc(-c2ccncc2)c[nH]c1=O [Amrinone]")
-1.236

Enquiry: Annotate the compound COc1ccccc1OCCNCC(O)COc1cccc2[nH]c3ccccc3c12 (centres unmarked) [Carvedilol] with its measured B-score functional assay.
Return: -0.341

Enquiry: Annotate the compound CCC(Cc1c(I)cc(I)c(N)c1I)C(=O)O (centres unmarked) [Iopanoic acid] with its measured B-score functional assay.
Return: -1.985

Enquiry: Annotate the compound C[N+](C)(C)CCCCCCCCCC[N+](C)(C)C [Decamethonium bromide] with its measured B-score functional assay.
Return: -0.848

Enquiry: Annotate the compound O=c1[nH]cc(F)c(=O)[nH]1 [5-fluorouracil] with its measured B-score functional assay.
Return: -0.016

Enquiry: Annotate the compound CCCNC(C)(C)COC(=O)c1ccccc1 [Meprylcaine hydrochloride] with its measured B-score functional assay.
Return: 0.763

Enquiry: Annotate the compound CCN(CCCc1ccccc1)CCCc1ccccc1.O=C(O)CC(O)(CC(=O)O)C(=O)O [Alverine citrate salt] with its measured B-score functional assay.
Return: -1.552

Enquiry: Annotate the compound C[C@]12C[C@H](O)[C@H]3[C@@H](CCC4=CC(=O)CC[C@@]43C)[C@@H]1CC[C@@H]2C(=O)CO [Corticosterone] with its measured B-score functional assay.
Return: 1.754

Enquiry: Annotate the compound CC(=O)Oc1cc(C(C)C)c(OCCN(C)C)cc1C.Cl [Moxisylyte hydrochoride] with its measured B-score functional assay.
Return: -0.84

Enquiry: Annotate the compound C[C@H](N)[C@H](O)c1ccc(O)c(O)c1 [Levonordefrin] with its measured B-score functional assay.
Return: 0.177

Enquiry: Annotate the compound CC(=O)OCC(=O)NCCCOc1cccc(CN2CCCCC2)c1 [Roxatidine Acetate HCl] with its measured B-score functional assay.
Return: -2.305

Enquiry: Annotate the compound CC(=O)CC(c1ccccc1)c1c(O)c2ccccc2oc1=O (centres unmarked) [Warfarin] with its measured B-score functional assay.
Return: -1.345

Enquiry: Annotate the compound CC(C)(C)NCC(O)c1cc(O)cc(O)c1.CC(C)(C)NCC(O)c1cc(O)cc(O)c1.O=S(=O)(O)O (centres unmarked) [Terbutaline hemisulfate] with its measured B-score functional assay.
Return: 2.669

Enquiry: Annotate the compound CN1Cc2c(N)cccc2C(c2ccccc2)C1 (centres unmarked) [Nomifensine maleate] with its measured B-score functional assay.
Return: 0.089

Enquiry: Annotate the compound CCCCC(O)c1ccccc1 (centres unmarked) [Fenipentol] with its measured B-score functional assay.
Return: -0.409

Enquiry: Annotate the compound Nc1nc(O)c2ncn(COC(CO)CO)c2n1 [Ganciclovir] with its measured B-score functional assay.
Return: -2.412

Enquiry: Annotate the compound C[C@H](CCC(=O)O)[C@H]1CC[C@H]2[C@@H]3C(=O)C[C@@H]4CC(=O)CC[C@]4(C)[C@H]3CC(=O)[C@]12C [Dehydrocholic acid] with its measured B-score functional assay.
Return: -1.555

Enquiry: Annotate the compound C[N+]1(CCCCC[N+]2(C)CCCC2)CCCC1.O=C([O-])C(O)C(O)C(=O)O.O=C([O-])C(O)C(O)C(=O)O [Pentolinium bitartrate] with its measured B-score functional assay.
Return: -0.089

Enquiry: Annotate the compound S=C(NC1CCCCC1)N1CCC(c2cnc[nH]2)CC1 [Thioperamide maleate] with its measured B-score functional assay.
Return: -0.893

Enquiry: Annotate the compound CCC[C@H](N[C@@H](C)C(=O)N1[C@H](C(=O)O)C[C@@H]2CCCC[C@@H]21)C(=O)OCC [Perindopril] with its measured B-score functional assay.
Return: -2.428

Enquiry: Annotate the compound NCC1(CC(=O)O)CCCCC1 [Gabapentin] with its measured B-score functional assay.
Return: -0.982

Enquiry: Annotate the compound CCN1CC(CCN2CCOCC2)C(c2ccccc2)(c2ccccc2)C1=O.Cl (centres unmarked) [Doxapram hydrochloride] with its measured B-score functional assay.
Return: 0.629
